Biological target: PaDsbB2 (Pseudomonas aeruginosa, UniProt Q02EA7, C17A/C53A)
Sequence (Q02EA7 1-163 C17A/C53A): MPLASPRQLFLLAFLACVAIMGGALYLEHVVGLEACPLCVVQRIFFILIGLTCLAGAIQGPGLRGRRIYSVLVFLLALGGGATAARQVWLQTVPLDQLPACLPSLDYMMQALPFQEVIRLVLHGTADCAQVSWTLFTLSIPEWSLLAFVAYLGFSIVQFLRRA
Assay: In vitro ubiquinone reduction assay with purified PaDsbB2
pKi: −log10 of the molar value.
readout: pKi

INSERT INTO measurements (molecule, readout, quantitative_result) VALUES
  ('O=c1c(Cl)c(Cl)cnn1Cc1ccccc1Cl [compound 12, reference compound]', 'pKi', 5.40),
  ('Cn1c(=O)c([N+](=O)[O-])c(Cl)c2ccccc21', 'pKi', 5.12);

----------
Target: PaDsbB1 (Pseudomonas aeruginosa, UniProt Q02TM7, C154Y)
Test: In vitro ubiquinone reduction assay with purified PaDsbB1
Reported values of Ki for individual entries
readout: Ki (nM)

INSERT INTO measurements (compound, readout, result_units, quantitative_result) VALUES
  ('Cn1c(=O)c([N+](=O)[O-])c(Cl)c2ccccc21 [PA3]', 'Ki', 'nM', 2800),
  ('O=c1c(Cl)c(Cl)cnn1Cc1ccccc1Cl [compound 12, reference compound]', 'Ki', 'nM', 3000);

----------
Biological target: MtVKOR (Mycobacterium tuberculosis)
Assay: In vitro ubiquinone reduction assay with purified MtVKOR
Type: biochemical, M. tuberculosis
pKi: −log10 of the molar value.
readout: pKi

INSERT INTO results (compound, quantitative_result) VALUES
  ('O=C1c2ccccc2C(=O)C1c1ccc(Br)cc1 [Bromindione, reference compound]', 6.00);

----------
Reported values of pIC50 for individual entries
Target: PaDsbB1 (ΔdsbB2) (Pseudomonas aeruginosa, UniProt Q02TM7)
Assay: Elastase in vivo assay, ΔdsbB2 mutant
pIC50: −log10 of the molar value.
readout: pIC50

INSERT INTO assay_data (molecule, readout, sign, quantitative_result) VALUES
  ('N#CC(C#N)=NNc1ccccc1 [PA2]', 'pIC50', '<', 4.00),
  ('Cn1c(=O)c([N+](=O)[O-])c(Cl)c2ccccc21 [PA3]', 'pIC50', '=', 5.05),
  ('NC(=O)c1nc(Cl)c(Cl)c(Cl)c1Cl [PA1]', 'pIC50', '=', 3.92),
  ('O=c1c(Cl)c(Cl)cnn1Cc1ccccc1Cl [compound 12, reference compound]', 'pIC50', '=', 5.07);

----------
Reported values of IC50 for individual entries
Molecular target: PaDsbB2 (Pseudomonas aeruginosa, UniProt Q02EA7, C17A/C53A)
Sequence (Q02EA7 1-163 C17A/C53A): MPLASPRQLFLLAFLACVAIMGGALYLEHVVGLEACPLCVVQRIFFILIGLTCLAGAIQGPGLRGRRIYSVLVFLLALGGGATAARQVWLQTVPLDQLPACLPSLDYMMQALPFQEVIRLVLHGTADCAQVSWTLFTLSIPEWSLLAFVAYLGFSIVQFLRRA
Experiment: In vitro ubiquinone reduction assay with purified PaDsbB2
readout: IC50 (µM)

INSERT INTO assay_data (molecule, readout, result_units, quantitative_result) VALUES
  ('O=c1c(Cl)c(Cl)cnn1Cc1ccccc1Cl [compound 12, reference compound]', 'IC50', 'µM', 6),
  ('Cn1c(=O)c([N+](=O)[O-])c(Cl)c2ccccc21', 'IC50', 'µM', 3),
  ('NC(=O)c1nc(Cl)c(Cl)c(Cl)c1Cl', 'IC50', 'µM', 600),
  ('N#CC(C#N)=NNc1ccccc1', 'IC50', 'µM', 83);

----------
Molecular target: RnVKOR expressed in E. coli (Rattus norvegicus, UniProt Q6TEK4, DEL31-33)
Experiment: Agar β-Gal^dbs assay, E. coli expressing RnVKOR
Type: cell-based
Details: FSH250 strain (Figure 4)
readout: Inhibition of RnVKOR expressed in E. coli

INSERT INTO results (compound, assayed_system, result) VALUES
  ('c1ccc(Nc2nc3nonc3nc2Nc2ccccc2)cc1', 'RnVKOR expressed in E. coli (Rattus norvegicus, UniProt Q6TEK4, DEL31-33)', 'inhibited'),
  ('O=C(Nc1ccccc1)c1cc(Cl)ccc1O', 'RnVKOR expressed in E. coli (Rattus norvegicus, UniProt Q6TEK4, DEL31-33)', 'inhibited'),
  ('OC(CNCc1ccccc1)Cn1c2ccc(Cl)cc2c2cc(Cl)ccc21 (stereo not shown)', 'RnVKOR expressed in E. coli (Rattus norvegicus, UniProt Q6TEK4, DEL31-33)', 'inhibited');

----------
Reported values of IC50 for individual entries
Molecular target: human protein disulfide isomerase (PDI) (Homo sapiens, UniProt P07237)
Sequence (P07237 18-508): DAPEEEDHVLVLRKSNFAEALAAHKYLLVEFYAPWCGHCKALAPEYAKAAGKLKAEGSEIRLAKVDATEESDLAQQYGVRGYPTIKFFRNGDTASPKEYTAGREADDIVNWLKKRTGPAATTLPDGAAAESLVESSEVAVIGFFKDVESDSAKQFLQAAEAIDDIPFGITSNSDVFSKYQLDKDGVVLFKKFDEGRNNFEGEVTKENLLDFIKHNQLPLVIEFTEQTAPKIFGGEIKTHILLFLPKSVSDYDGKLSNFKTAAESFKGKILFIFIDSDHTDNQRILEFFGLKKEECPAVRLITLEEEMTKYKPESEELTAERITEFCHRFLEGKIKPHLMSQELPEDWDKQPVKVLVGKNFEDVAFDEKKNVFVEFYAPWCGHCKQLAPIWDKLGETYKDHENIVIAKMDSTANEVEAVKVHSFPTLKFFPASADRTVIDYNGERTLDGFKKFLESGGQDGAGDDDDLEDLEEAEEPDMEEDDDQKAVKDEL
Experiment: PDI insulin reduction assay
Assay type: biochemical
readout: IC50 (µM)

INSERT INTO results (compound, assayed_system, sign, quantitative_result) VALUES
  ('NC(=O)c1nc(Cl)c(Cl)c(Cl)c1Cl', 'human protein disulfide isomerase (PDI) (Homo sapiens, UniProt P07237)', '>', 100),
  ('N#CC(C#N)=NNc1ccccc1', 'human protein disulfide isomerase (PDI) (Homo sapiens, UniProt P07237)', '=', 98.3),
  ('Cn1c(=O)c([N+](=O)[O-])c(Cl)c2ccccc21', 'human protein disulfide isomerase (PDI) (Homo sapiens, UniProt P07237)', '=', 98),
  ('O=C1c2ccccc2C(=O)C1c1ccc(Br)cc1 [Bromindione, reference compound]', 'human protein disulfide isomerase (PDI) (Homo sapiens, UniProt P07237)', '>', 100),
  ('O=c1c(Cl)c(Cl)cnn1Cc1ccccc1Cl [compound 12, reference compound]', 'human protein disulfide isomerase (PDI) (Homo sapiens, UniProt P07237)', '>', 100);

----------
Target: MtVKOR (Mycobacterium tuberculosis, UniProt I6X5W1)
pIC50: −log10 of the molar value.
readout: pIC50

INSERT INTO results (compound, readout, quantitative_result) VALUES
  ('O=C1c2ccccc2C(=O)C1c1ccc(Br)cc1 [Bromindione, reference compound]', 'pIC50', 5.30);

----------
Biological target: EcDsbB (Escherichia coli, UniProt P0A6M2, C49V/C8A)
Sequence (P0A6M2 1-176 C8A/C49V): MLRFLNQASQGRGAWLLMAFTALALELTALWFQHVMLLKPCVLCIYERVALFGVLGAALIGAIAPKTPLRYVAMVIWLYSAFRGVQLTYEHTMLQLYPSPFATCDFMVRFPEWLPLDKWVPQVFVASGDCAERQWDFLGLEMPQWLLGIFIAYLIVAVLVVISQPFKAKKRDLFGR
Test: In vitro ubiquinone reduction assay with purified EcDsbB
pKi: −log10 of the molar value.
readout: pKi

INSERT INTO assay_data (compound, quantitative_result) VALUES
  ('N#CC(C#N)=NNc1ccccc1', 4.52),
  ('Cn1c(=O)c([N+](=O)[O-])c(Cl)c2ccccc21', 4.89),
  ('O=c1c(Cl)c(Cl)cnn1Cc1ccccc1Cl [compound 12, reference compound]', 8.30),
  ('NC(=O)c1nc(Cl)c(Cl)c(Cl)c1Cl', 4.00);

----------
Biological target: PaDsbB1 (Pseudomonas aeruginosa, UniProt Q02TM7, C154Y)
Sequence (Q02TM7 1-169 C154Y): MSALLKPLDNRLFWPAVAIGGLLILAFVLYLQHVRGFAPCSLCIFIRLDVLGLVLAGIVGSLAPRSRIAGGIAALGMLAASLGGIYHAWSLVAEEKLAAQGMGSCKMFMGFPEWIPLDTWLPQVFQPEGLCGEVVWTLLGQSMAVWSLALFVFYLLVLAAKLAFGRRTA
Test: In vitro ubiquinone reduction assay with purified PaDsbB1
Reported values of IC50 for individual entries
readout: IC50 (µM)

INSERT INTO results (compound, result_units, quantitative_result) VALUES
  ('O=c1c(Cl)c(Cl)cnn1Cc1ccccc1Cl [compound 12, reference compound]', 'µM', 4.1),
  ('N#CC(C#N)=NNc1ccccc1 [PA2]', 'µM', 83),
  ('NC(=O)c1nc(Cl)c(Cl)c(Cl)c1Cl [PA1]', 'µM', 530),
  ('Cn1c(=O)c([N+](=O)[O-])c(Cl)c2ccccc21 [PA3]', 'µM', 6);
